B1: HDV Ribozyme (parent)
chain: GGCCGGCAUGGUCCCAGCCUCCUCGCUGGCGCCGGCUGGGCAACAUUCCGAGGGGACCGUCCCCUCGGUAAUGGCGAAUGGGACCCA

# Variants of: B1
# experimental_details: self-cleavage, relative activity (ratio to wild type); higher = more cleavage; co-transcriptional
assay_readout: self-cleavage
Answers are plain numbers.

Sample answers from the record:
[
  {
    "sequence_entry": "GGCCGACAUGGUCCCAGCCUCCUCGCUGGCGCCGGCUGGACAACAUUCCGAGGGGACCGUCCCCUCGGUAAUGGCGAAUGGGACCCA [G6A G40A]",
    "assay_readout": "self-cleavage",
    "readout_number": 0.505
  },
  {
    "sequence_entry": "GGCCCGCAUGGUCCCAGCCUCCUCGCUGGCGCCGGAUGGGCAACAUUCCGAGGGGACCGUCCCCUCGGUAAUGGCGAAUGGGACCCA [G5C C36A]",
    "assay_readout": "self-cleavage",
    "readout_number": 0.0489
  },
  {
    "sequence_entry": "GGCCGGCAUGGUCCCAGCCUCCUCGCUGGCGCCGGCAGGGCAACAUUCCGAAGGGACCGUCCCCUCGGUAAUGGCGAAUGGGACCCA [U37A G52A]",
    "assay_readout": "self-cleavage",
    "readout_number": 0.145
  }
]

Hey, can you go through the list below and give me self-cleavage for every item?
1. GGCCGGCAUGGUCCCAGCCUCCUCUCUGGCGCCGGCUGGGCAGCAUUCCGAGGGGACCGUCCCCUCGGUAAUGGCGAAUGGGACCCA [G25U A43G]
2. GGCCGGCAUGGUCCCAGCCUCAUCGCUGGCGCCGGCUGGGCAACAUUACGAGGGGACCGUCCCCUCGGUAAUGGCGAAUGGGACCCA [C22A C48A]
3. GGCCGGCAUGGUCCCAGCCUCCUUGCGGGCGCCGGCUGGGCAACAUUCCGAGGGGACCGUCCCCUCGGUAAUGGCGAAUGGGACCCA [C24U U27G]
4. GGCCGGCAUGGUCCCAGACUCCUCGCUGGCGCCGGCUGGGCAACAUUCCGAGGUGACCGUCCCCUCGGUAAUGGCGAAUGGGACCCA [C18A G54U]
5. GGCCGGCAUGGUCCCAGCCUCCUUGCUGGCGCCGGCUGGGCAACAUUCCGAGGGGACCGUCCGCUCGGUAAUGGCGAAUGGGACCCA [C24U C63G]
6. GGCCGGCAUGGUCCCAGCCUCCUCGCUGGCGCCGGCUGGGCAUCAGUCCGAGGGGACCGUCCCCUCGGUAAUGGCGAAUGGGACCCA [A43U U46G]

Solution:
1: 0.0573; 2: 0.201; 3: 0.431; 4: 0.135; 5: 0.76; 6: 0.185

Hey, can you go through the list below and give me self-cleavage for every item?
1. GGCCGGCAUGGUCCCAGCCUCCUCGCUGGCGCCGCCUGGGCAACAUUCCGAGGGGACCGUCCCCUCGGUAAUGGCCAAUGGGACCCA [G35C G76C]
2. GGCCGGCAUGGUCCCAGCCUCCUCGCUGGCGCCGGCUGGGCAACAUUCCGAGGGGACCUUUCCCUCGGUAAUGGCGAAUGGGACCCA [G59U C61U]

Solution:
1: 0.305; 2: 0.997
